- Measured on: BSA (Bos taurus, UniProt P02769)
- Construct: purchased Millipore Sigma-Aldrich
- Sequence (P02769 25-607): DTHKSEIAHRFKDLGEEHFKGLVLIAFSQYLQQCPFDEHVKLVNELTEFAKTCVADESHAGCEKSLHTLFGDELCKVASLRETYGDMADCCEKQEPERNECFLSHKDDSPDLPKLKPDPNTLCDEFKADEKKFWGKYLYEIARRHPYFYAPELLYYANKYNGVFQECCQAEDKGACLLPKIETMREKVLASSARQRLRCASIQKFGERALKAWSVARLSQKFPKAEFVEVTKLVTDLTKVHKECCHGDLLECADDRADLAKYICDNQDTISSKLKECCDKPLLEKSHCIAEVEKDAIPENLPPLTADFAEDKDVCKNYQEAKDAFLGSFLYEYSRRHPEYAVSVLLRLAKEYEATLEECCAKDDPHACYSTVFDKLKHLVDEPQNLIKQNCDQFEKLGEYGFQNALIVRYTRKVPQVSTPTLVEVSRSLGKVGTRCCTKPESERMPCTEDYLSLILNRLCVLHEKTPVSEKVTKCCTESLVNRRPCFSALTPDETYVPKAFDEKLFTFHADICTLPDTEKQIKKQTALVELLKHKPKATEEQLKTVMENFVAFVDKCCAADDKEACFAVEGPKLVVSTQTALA
- Assay name: DSC thermal unfolding of BSA in water and aqueous solutions of ABS phase-forming components
- Format: physicochemical, bovine
- Condition label: 1.0 mg/mL BSA, 5 mM component
Endpoint: ΔHvH (kcal/mol)

> print(dat)
                                   molecule  recorded.number
1  OC[C@H]1O[C@@](CO)(O[C@H]2O[C@H](CO)[C@@H](O)[C@H](O)[C@H]2O)[C@@H](O)[C@@H]1O            129.1
2  CCCCn1cc[n+](C)c1.O=S(=O)([O-])C(F)(F)F [[C4C1Im][CF3SO3]]            160.3
3  CCn1cc[n+](C)c1.O=S(=O)([O-])C(F)(F)C(F)(F)C(F)(F)C(F)(F)F            197.2
4  C[N+](C)(C)CCO.O=S(=O)([O-])C(F)(F)C(F)(F)C(F)(F)C(F)(F)F [[N1112(OH)][C4F9SO3]]            191.5
5  C[N+](C)(C)CCO.C[N+](C)(C)CCO.O=P([O-])(O)O.O=P([O-])(O)O [[N1112(OH)][H2PO4]]              150

---

Measured Distorted Beta Sheet values are reported for all entries that follow.
- Measured on: BSA (Bos taurus, UniProt P02769)
- Construct: purchased Millipore Sigma-Aldrich
- Assay name: Far-UV CD secondary structure of BSA (CONTIN-LL deconvolution)
- Format: physicochemical, bovine
- Condition label: 1.0 mg/mL BSA, 90 mM component, 25 °C
Endpoint: Distorted Beta Sheet

> print(dat)
                                   compound                       measured.on  recorded.number
1  C[N+](C)(C)CCO.C[N+](C)(C)CCO.O=P([O-])(O)O.O=P([O-])(O)O [[N1112(OH)][H2PO4]]  BSA (Bos taurus, UniProt P02769)            0.044
2  CCn1cc[n+](C)c1.O=S(=O)([O-])C(F)(F)C(F)(F)C(F)(F)C(F)(F)F  BSA (Bos taurus, UniProt P02769)            0.026
3  C[N+](C)(C)CCO.O=S(=O)([O-])C(F)(F)C(F)(F)C(F)(F)C(F)(F)F [[N1112(OH)][C4F9SO3]]  BSA (Bos taurus, UniProt P02769)            0.036
4  OC[C@H]1O[C@@](CO)(O[C@H]2O[C@H](CO)[C@@H](O)[C@H](O)[C@H]2O)[C@@H](O)[C@@H]1O  BSA (Bos taurus, UniProt P02769)            0.025
5  CCCCn1cc[n+](C)c1.O=S(=O)([O-])C(F)(F)F [[C4C1Im][CF3SO3]]  BSA (Bos taurus, UniProt P02769)            0.026

---

- Measured on: BSA (Bos taurus)
- Construct: purchased Millipore Sigma-Aldrich
- Assay name: Far-UV CD secondary structure of BSA (CONTIN-LL deconvolution)
- Assay type: physicochemical, bovine
- Set-up: unit not given here
- Condition label: 1.0 mg/mL BSA, 120 mM component, 25 °C
Endpoint: Unordered

> print(dat)
                                   compound  recorded.number
1  OC[C@H]1O[C@@](CO)(O[C@H]2O[C@H](CO)[C@@H](O)[C@H](O)[C@H]2O)[C@@H](O)[C@@H]1O [Sucrose, sucrose]            0.213
2  CCCCn1cc[n+](C)c1.O=S(=O)([O-])C(F)(F)F [[C4C1Im][CF3SO3]]            0.266
3  C[N+](C)(C)CCO.C[N+](C)(C)CCO.O=P([O-])(O)O.O=P([O-])(O)O [[N1112(OH)][H2PO4]]            0.208
4  C[N+](C)(C)CCO.O=S(=O)([O-])C(F)(F)C(F)(F)C(F)(F)C(F)(F)F [[N1112(OH)][C4F9SO3]]            0.203
5  CCn1cc[n+](C)c1.O=S(=O)([O-])C(F)(F)C(F)(F)C(F)(F)C(F)(F)F            0.196

---

- Measured on: BSA (Bos taurus)
- Construct: purchased Millipore Sigma-Aldrich
- Assay name: DSC thermal unfolding of BSA in water and aqueous solutions of ABS phase-forming components
- Format: physicochemical, bovine
- Condition label: 1.0 mg/mL BSA, 5 mM component
Endpoint: ΔG (kcal/mol)

> print(dat)
                                   compound  endpoint  recorded.number
1  C[N+](C)(C)CCO.C[N+](C)(C)CCO.O=P([O-])(O)O.O=P([O-])(O)O [[N1112(OH)][H2PO4]]        ΔG            25.72
2  C[N+](C)(C)CCO.O=S(=O)([O-])C(F)(F)C(F)(F)C(F)(F)C(F)(F)F [[N1112(OH)][C4F9SO3]]        ΔG            26.41
3  CCn1cc[n+](C)c1.O=S(=O)([O-])C(F)(F)C(F)(F)C(F)(F)C(F)(F)F        ΔG            30.02
4  CCCCn1cc[n+](C)c1.O=S(=O)([O-])C(F)(F)F [[C4C1Im][CF3SO3]]        ΔG            27.34
5  OC[C@H]1O[C@@](CO)(O[C@H]2O[C@H](CO)[C@@H](O)[C@H](O)[C@H]2O)[C@@H](O)[C@@H]1O        ΔG            20.87

---

- Measured on: BSA (Bos taurus)
- Construct: purchased Millipore Sigma-Aldrich
- Assay name: Far-UV CD secondary structure of BSA (CONTIN-LL deconvolution)
- Type: physicochemical, bovine
- Condition label: 1.0 mg/mL BSA, 120 mM component, 25 °C
Endpoint: Turns

> print(dat)
                                   compound  endpoint  recorded.number
1  C[N+](C)(C)CCO.C[N+](C)(C)CCO.O=P([O-])(O)O.O=P([O-])(O)O [[N1112(OH)][H2PO4]]     Turns            0.141
2  OC[C@H]1O[C@@](CO)(O[C@H]2O[C@H](CO)[C@@H](O)[C@H](O)[C@H]2O)[C@@H](O)[C@@H]1O     Turns            0.135
3  CCn1cc[n+](C)c1.O=S(=O)([O-])C(F)(F)C(F)(F)C(F)(F)C(F)(F)F     Turns            0.147
4  CCCCn1cc[n+](C)c1.O=S(=O)([O-])C(F)(F)F [[C4C1Im][CF3SO3]]     Turns            0.126
5  C[N+](C)(C)CCO.O=S(=O)([O-])C(F)(F)C(F)(F)C(F)(F)C(F)(F)F [[N1112(OH)][C4F9SO3]]     Turns            0.147

---

- Measured on: BSA (Bos taurus, UniProt P02769)
- Construct: purchased Millipore Sigma-Aldrich
- Assay name: Far-UV CD secondary structure of BSA (CONTIN-LL deconvolution)
- Assay type: physicochemical, bovine
- Parameters: unit not given here
- Condition label: 1.0 mg/mL BSA, 25 mM component, 25 °C
- Excerpt: Circular dichroism (CD) is widely used to study the secondary structures of proteins, peptides and nucleic acids, because it requires a low concentration sample, is a nondestructive method, allows studying a wide range of variables (temperature, pH, etc.), and provides information on the effect of added ligands on protein folding and interactions. […]
Endpoint: Turns

> print(dat)
                                   molecule                       measured.on  recorded.number
1  C[N+](C)(C)CCO.O=S(=O)([O-])C(F)(F)C(F)(F)C(F)(F)C(F)(F)F [[N1112(OH)][C4F9SO3]]  BSA (Bos taurus, UniProt P02769)            0.140
2  CCn1cc[n+](C)c1.O=S(=O)([O-])C(F)(F)C(F)(F)C(F)(F)C(F)(F)F  BSA (Bos taurus, UniProt P02769)            0.149
3  OC[C@H]1O[C@@](CO)(O[C@H]2O[C@H](CO)[C@@H](O)[C@H](O)[C@H]2O)[C@@H](O)[C@@H]1O  BSA (Bos taurus, UniProt P02769)            0.131
4  C[N+](C)(C)CCO.C[N+](C)(C)CCO.O=P([O-])(O)O.O=P([O-])(O)O [[N1112(OH)][H2PO4]]  BSA (Bos taurus, UniProt P02769)            0.136
5  CCCCn1cc[n+](C)c1.O=S(=O)([O-])C(F)(F)F [[C4C1Im][CF3SO3]]  BSA (Bos taurus, UniProt P02769)            0.128
